EXPERIMENT DESCRIPTION: AUC in Sprague-Dawley rat at 3 mg/kg, po by LC-MS/MS analysis
Assay type: ADME, organism-based
TEST PARAMETERS: in vivo
PARAMETER: AUC (ng·h/mL)
Lab book: enter the figure in ng·h/mL, no units written.

Prompt: Please report AUC for the following compound: CC[C@H](Nc1ncnc2[nH]cnc12)c1nc2cccc(F)c2c(=O)n1-c1ccccc1 [IDELALISIB]
Response: 422

---

STUDY TARGET: Phosphatidylinositol 4,5-bisphosphate 3-kinase catalytic subunit delta isoform (Homo sapiens)
EXPERIMENT DESCRIPTION: Inhibition of PI3K p110delta (unknown origin) using lipid substrate after 40 mins by kinase-Glo assay
Returns: string. Value is y if measured IC50 is below 6 nM, and n if it is greater than or equal to it.

- GIVEN SMILES: "COc1ccc(-c2ccc3ncnc(N[C@H]4CCN(C(=O)C5CCOCC5)C4)c3c2)cn1"
  LABEL CLASS: "y"

Prompt: API: query returns whether the compound falls strictly under 6 nM in IC50. Query: COc1ncc(-c2ccc3ncnc(N[C@H]4CCN(C(=O)OC(C)(C)C)C4)c3c2)cc1C#N
Response: n

Prompt: Decide: IC50 of COc1ncc(-c2ccc3ncnc(N[C@H]4CCN(C(=O)C5CCOCC5)C4)c3c2)cc1[N+](=O)[O-] strictly below 6 nM?
Response: y

Prompt: Say whether its IC50 is strictly beneath 6 nM. Entry: COc1ccc(-c2ccc3ncnc(N[C@H]4CCN(C(=O)C5CC5)C4)c3c2)cn1
Response: y

Prompt: Record COc1ncc(-c2ccc3ncnc(N[C@H]4CCN(C(=O)C5CC5)C4)c3c2)cc1C#N : is its IC50 strictly below 6 nM?
Response: y

Prompt: Strictly below 6 nM: is that where IC50 of COc1ccc(-c2ccc3ncnc(N[C@H]4CCN(C(=O)c5ccco5)C4)c3c2)cn1 sits?
Response: y

---

STUDY TARGET: Phosphatidylinositol 4,5-bisphosphate 3-kinase catalytic subunit delta isoform (Homo sapiens)
Sequence (whole entry): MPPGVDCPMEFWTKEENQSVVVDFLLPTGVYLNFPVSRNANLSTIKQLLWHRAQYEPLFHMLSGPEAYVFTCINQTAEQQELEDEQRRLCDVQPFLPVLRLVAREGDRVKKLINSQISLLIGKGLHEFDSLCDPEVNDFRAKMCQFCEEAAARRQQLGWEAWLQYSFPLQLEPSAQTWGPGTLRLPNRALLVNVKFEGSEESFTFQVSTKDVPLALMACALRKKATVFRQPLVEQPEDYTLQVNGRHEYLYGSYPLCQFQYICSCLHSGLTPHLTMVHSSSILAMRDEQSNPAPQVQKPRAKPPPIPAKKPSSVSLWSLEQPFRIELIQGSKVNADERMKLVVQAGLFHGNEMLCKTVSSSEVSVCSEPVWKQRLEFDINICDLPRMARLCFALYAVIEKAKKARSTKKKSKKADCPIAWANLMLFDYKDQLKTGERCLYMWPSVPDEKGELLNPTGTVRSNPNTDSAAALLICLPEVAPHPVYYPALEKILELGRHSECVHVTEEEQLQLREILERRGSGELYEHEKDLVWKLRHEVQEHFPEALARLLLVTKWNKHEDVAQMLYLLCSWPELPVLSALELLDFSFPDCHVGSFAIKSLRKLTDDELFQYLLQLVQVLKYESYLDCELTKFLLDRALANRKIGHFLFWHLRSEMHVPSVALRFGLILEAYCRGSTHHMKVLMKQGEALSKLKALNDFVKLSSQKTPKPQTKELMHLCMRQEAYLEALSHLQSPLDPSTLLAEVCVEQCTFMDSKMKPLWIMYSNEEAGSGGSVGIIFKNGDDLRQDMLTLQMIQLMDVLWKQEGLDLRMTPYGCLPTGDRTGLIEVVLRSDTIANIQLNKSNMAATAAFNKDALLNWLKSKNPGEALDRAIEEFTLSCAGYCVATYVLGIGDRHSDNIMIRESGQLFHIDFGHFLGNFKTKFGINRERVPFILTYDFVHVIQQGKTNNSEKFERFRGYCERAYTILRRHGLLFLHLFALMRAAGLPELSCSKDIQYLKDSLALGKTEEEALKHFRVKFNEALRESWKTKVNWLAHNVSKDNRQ
EXPERIMENT DESCRIPTION: Inhibition of PI3K p110delta (unknown origin) at 100 nM using lipid substrate after 40 mins by kinase-Glo assay relative to control
Below is a list of entries, each paired with its recorded inhibition value.
Answer with a number only, understood to be in %.

For orientation, consider the following solved cases.
- COMPOUND: "COc1ccc(-c2ccc3ncnc(N[C@H]4CCN(C(=O)C5CCOCC5)C4)c3c2)cc1C(N)=O"
  UNITS LABEL: "%"
  inhibition: 92
- COMPOUND: "COc1ccc(-c2ccc3ncnc(N[C@@H]4CCN(C(=O)C5CCOCC5)C4)c3c2)cn1"
  UNITS LABEL: "%"
  inhibition: 46
- COMPOUND: "COc1ncc(-c2ccc3ncnc(N[C@H]4CCN(C(=O)C5CCOCC5)C4)c3c2)cc1[N+](=O)[O-]"
  UNITS LABEL: "%"
  inhibition: 99
- COMPOUND: "COc1ccc(-c2ccc3ncnc(N[C@H]4CCN(C(=O)C5CC5)C4)c3c2)cc1C(N)=O"
  UNITS LABEL: "%"
  inhibition: 84
- COMPOUND: "CC[C@H](Nc1ncnc2[nH]cnc12)c1nc2cccc(F)c2c(=O)n1-c1ccccc1 [IDELALISIB]"
  UNITS LABEL: "%"
  inhibition: 96

Prompt: Determine from records and report inhibition for CC(C)(C)OC(=O)N1CC[C@H](Nc2ncnc3ccc(-c4cnc(N)nc4)cc23)C1
Response: 44

Prompt: Dear colleague, please send me the reported inhibition for COc1ccc(-c2ccc3ncnc(N[C@H]4CCN(C(=O)OC(C)(C)C)C4)c3c2)cc1C(N)=O when you can.
Response: 74

Prompt: Give a short answer stating reported inhibition for CC(C)(C)OC(=O)N1CC[C@H](Nc2ncnc3ccc(-c4ccc(N)nc4)cc23)C1 .
Response: 17

Prompt: In one line, give reported inhibition of the entry COc1ccc(-c2ccc3ncnc(N[C@@H]4CCN(C(=O)OC(C)(C)C)C4)c3c2)cn1 .
Response: 0

Where do these numbers come from? They come from ChEMBL document CHEMBL4219144.
